Biological target: Tyrosine-protein kinase JAK2 (Homo sapiens)
Sequence (O60674 whole entry, the tested form may be a part): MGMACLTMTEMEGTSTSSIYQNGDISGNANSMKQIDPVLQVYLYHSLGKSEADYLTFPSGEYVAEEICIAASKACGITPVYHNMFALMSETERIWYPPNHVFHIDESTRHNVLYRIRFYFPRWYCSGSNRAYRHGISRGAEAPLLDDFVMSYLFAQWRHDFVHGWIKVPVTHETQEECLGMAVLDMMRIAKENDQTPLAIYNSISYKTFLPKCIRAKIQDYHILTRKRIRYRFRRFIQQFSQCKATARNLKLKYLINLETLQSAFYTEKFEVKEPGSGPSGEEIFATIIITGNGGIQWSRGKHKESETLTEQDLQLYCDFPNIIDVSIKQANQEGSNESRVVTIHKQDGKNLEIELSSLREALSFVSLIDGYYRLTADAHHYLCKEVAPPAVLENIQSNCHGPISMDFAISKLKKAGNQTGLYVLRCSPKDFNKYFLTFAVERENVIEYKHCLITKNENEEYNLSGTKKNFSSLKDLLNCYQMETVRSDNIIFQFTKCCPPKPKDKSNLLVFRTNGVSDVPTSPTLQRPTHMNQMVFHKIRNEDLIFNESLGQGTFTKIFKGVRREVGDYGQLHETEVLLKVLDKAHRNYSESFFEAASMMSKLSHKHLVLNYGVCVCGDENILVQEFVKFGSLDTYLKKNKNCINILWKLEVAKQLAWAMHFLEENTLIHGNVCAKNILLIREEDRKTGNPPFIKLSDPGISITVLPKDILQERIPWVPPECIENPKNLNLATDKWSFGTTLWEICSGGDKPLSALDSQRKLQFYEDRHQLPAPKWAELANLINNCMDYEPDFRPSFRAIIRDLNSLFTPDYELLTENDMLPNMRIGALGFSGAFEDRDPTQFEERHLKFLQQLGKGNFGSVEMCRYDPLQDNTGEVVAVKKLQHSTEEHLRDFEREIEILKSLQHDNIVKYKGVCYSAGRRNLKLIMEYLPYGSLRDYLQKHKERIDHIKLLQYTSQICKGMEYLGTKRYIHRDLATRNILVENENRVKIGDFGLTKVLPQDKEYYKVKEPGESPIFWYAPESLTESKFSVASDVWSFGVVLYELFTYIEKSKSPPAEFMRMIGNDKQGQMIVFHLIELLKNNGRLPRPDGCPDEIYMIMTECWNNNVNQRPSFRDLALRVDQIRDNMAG
Assay: Inhibition of N-terminal His-tagged human JAK2 catalytic domain (826 to 1132 resiudes) expressed in baculovirus expression system at 100 nM using FAM-labeled peptide as substrate preincubated for 10 mins followed by substrate addition measured after 1 hr in presence of ATP by mobility shift assay relative to control
Output 1 for inhibition not less than 80%; output -1 otherwise.

### Prompt # bool: inhibition of CC(=O)c1ccc(NC(=O)N2CCN(c3ccnc(Nc4ccc(N5CCOCC5)cc4)n3)CC2)cc1 >= 80%
### Response 1

### Prompt Dear colleague, could you confirm whether O=C(Nc1ccc(C(=O)N2CCOCC2)cc1)N1CCN(c2ccnc(Nc3ccc(N4CCOCC4)cc3)n2)CC1 has inhibition at or above 80%?
### Response -1

### Prompt Determine whether measured inhibition meets or exceeds 80% for NC(=O)c1cccc(NC(=O)N2CCN(c3ccnc(Nc4ccc(N5CCOCC5)cc4)n3)CC2)c1
### Response -1

### Prompt Hi team, for CCc1ccc(NC(=O)N2CCN(c3ccnc(Nc4ccc(N5CCOCC5)cc4)n3)CC2)cc1 , is the recorded inhibition at or above 80%?
### Response -1

### Prompt hey, is inhibition for this one >= 80%? O=C(Nc1cccc(C(F)(F)F)c1)N1CCN(c2ccnc(Nc3ccc(N4CCOCC4)cc3)n2)CC1
### Response -1

### Prompt Form field: inhibition at least 80%? Entry: NS(=O)(=O)c1ccc(NC(=O)N2CCN(c3ccnc(Nc4ccc(N5CCOCC5)cc4)n3)CC2)cc1
### Response 1

### Prompt Has CN1CCN(c2ccc(Nc3nccc(N4CCN(C(=O)Nc5ccc(S(N)(=O)=O)cc5)CC4)n3)cc2)CC1 a recorded inhibition greater than or equal to 80%?
### Response -1
